Measured values drawn from patent US20190359609A1 for this set.

# assayed.target: OGA (Homo sapiens)
# Construct: endogenous in cells; host or cells: HEK293 cells inducible for P301L mutant human Tau (2N4R)
# Sequence (O60502 1-916): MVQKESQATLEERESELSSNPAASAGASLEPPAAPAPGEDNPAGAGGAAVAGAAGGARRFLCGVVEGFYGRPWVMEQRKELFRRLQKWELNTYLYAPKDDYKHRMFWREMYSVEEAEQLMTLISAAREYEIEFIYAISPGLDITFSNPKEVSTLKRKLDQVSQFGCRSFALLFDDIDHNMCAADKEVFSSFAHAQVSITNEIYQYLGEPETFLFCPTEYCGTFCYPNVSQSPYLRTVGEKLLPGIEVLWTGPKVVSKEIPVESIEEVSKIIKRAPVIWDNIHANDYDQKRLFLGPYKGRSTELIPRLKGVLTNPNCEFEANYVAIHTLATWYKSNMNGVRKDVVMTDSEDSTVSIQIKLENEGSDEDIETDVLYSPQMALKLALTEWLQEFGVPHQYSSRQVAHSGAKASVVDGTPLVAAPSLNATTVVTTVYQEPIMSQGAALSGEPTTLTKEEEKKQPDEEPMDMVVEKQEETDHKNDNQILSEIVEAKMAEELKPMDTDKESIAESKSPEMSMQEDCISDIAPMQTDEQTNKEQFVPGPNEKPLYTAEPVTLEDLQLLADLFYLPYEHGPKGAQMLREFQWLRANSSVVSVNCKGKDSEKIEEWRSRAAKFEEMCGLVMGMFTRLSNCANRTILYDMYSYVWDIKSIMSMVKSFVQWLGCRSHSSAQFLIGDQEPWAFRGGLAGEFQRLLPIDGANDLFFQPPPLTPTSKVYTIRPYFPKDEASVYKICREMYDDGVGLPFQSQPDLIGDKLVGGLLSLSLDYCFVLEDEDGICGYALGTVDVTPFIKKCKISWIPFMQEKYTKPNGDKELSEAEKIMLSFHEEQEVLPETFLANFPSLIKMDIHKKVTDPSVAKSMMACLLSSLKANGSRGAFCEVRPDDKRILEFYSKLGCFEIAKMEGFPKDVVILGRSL
# assay.remarks: OGA cellular assay: ICC detection of O-GlcNAcylated proteins in HEK293 cells inducible for P301L mutant human Tau
# Format: cell-based
# stated.conditions: 6 hours incubation, read-out: Cellular hOGA, pEC50 (converted)
measured.property: EC50 (nM)

Study these solved cases before continuing.
[
  {
    "compound": "CC(=O)Nc1ncc(CN2CCCC(c3cc4ccncc4[nH]3)C2)s1 (stereo not shown)",
    "assayed.target": "OGA (Homo sapiens)",
    "EC50 [nM]": 18.2
  },
  {
    "compound": "CC(=O)Nc1ncc(CN2CCCC(c3nc4cccnc4n3C)C2)s1 (stereo not shown)",
    "assayed.target": "OGA (Homo sapiens)",
    "EC50 [nM]": 2630
  }
]

I: c1cnc2cc(C3CCCN(Cc4ccc5c(c4)OCCO5)C3)[nH]c2c1 (stereo not shown)
II: CC(=O)Nc1ncc(CN2CCCC(c3nc4ncccc4[nH]3)C2)s1 (single isomer, unassigned)
Req: Parameter metric = EC50. Return the lower-valued option from I and II . Which one? Tell me its label.
Resp: II

---

# assayed.target: recombinant human Meningioma Expressed Antigen 5 (MGEA5), also referred to as O-GlcNAcase (OGA) (Homo sapiens)
# Construct: Full length OGA enzyme was purchased at OriGene (cat # TP322411); purchased OriGene TP322411
# assay.remarks: OGA biochemical assay: inhibition of FM-GlcNAc hydrolysis, fluorescence (protocol A 10 nM OGA, 1 h; protocol B 2 nM OGA, 6 h)
# stated.conditions: Enzymatic protocol A (10 nM OGA, 1 h); read-out: Enzymatic Emax (%)
measured.property: Emax (%)

[
  {
    "compound": "CC(=O)Nc1ncc(S(=O)(=O)N2CCCC(c3nc4ncccc4[nH]3)C2)s1 (stereo not shown)",
    "Emax, %": 75.9
  },
  {
    "compound": "CC(=O)Nc1ncc(CN2CCCC(c3cc4ncccc4[nH]3)C2)s1 (single isomer, unassigned) [Compound 6]",
    "Emax, %": 92.3
  },
  {
    "compound": "CC(=O)Nc1ncc(CN2CCCC(c3cc4ncccc4[nH]3)C2)s1 (stereo not shown) [Compound 5]",
    "Emax, %": 99.7
  },
  {
    "compound": "CC(=O)Nc1ncc(CN2CC[C@@H](C)[C@H](c3cc4ncccc4[nH]3)C2)s1 (racemic)",
    "Emax, %": 101
  },
  {
    "compound": "c1cnc2cc(C3CCCN(Cc4ccc5c(c4)OCO5)C3)[nH]c2c1 (stereo not shown)",
    "Emax, %": 99.9
  },
  {
    "compound": "CC(=O)Nc1ncc(S(=O)(=O)N2CCCC(c3cc4ncccc4[nH]3)C2)s1 (single isomer, unassigned) [Compound 4]",
    "Emax, %": 99.7
  },
  {
    "compound": "CC(=O)Nc1ncc(CN2CCCC(c3cc4cccnc4[nH]3)C2)s1 (stereo not shown)",
    "Emax, %": 101
  },
  {
    "compound": "CC(=O)Nc1ncc(CN2CCCC(c3nc4cccnc4n3C)C2)s1 (stereo not shown)",
    "Emax, %": 101
  },
  {
    "compound": "CC(=O)Nc1ncc(S(=O)(=O)N2CCCC(c3cc4ncccc4[nH]3)C2)s1 (stereo not shown) [Compound 2]",
    "Emax, %": 102
  },
  {
    "compound": "CCC(=O)Nc1ncc(CN2CCCC(c3cc4ncccc4[nH]3)C2)s1 (stereo not shown)",
    "Emax, %": 98
  },
  {
    "compound": "CC(=O)Nc1ncc(CN2CCCC(c3nc4ncccc4n3C)C2)s1 (stereo not shown)",
    "Emax, %": 98
  },
  {
    "compound": "c1cnc2cc(C3CCCN(Cc4ccc5c(c4)OCCO5)C3)[nH]c2c1 (stereo not shown)",
    "Emax, %": 98.2
  },
  {
    "compound": "CC(=O)Nc1ncc(CN2CCC[C@H](c3cc4ncccc4[nH]3)C2)s1 (single isomer, unassigned)",
    "Emax, %": 104
  }
]
